molecular target: EPHA6 (human); assay: KINOMEscan competition binding; conditions: compound 10.0 µM
Parameter: kinase still bound, per cent of control. Scope: all listed entries.
value.kind: kinase still bound, per cent of control (%)

smiles.notation	value.kind	unit.spec	recorded.result
Cc1cc([C@@H](C)Nc2ccccc2C(=O)O)c2nc(N3CCOCC3)cc(=O)n2c1	kinase still bound, per cent of control	%	100
CCOc1cc2ncc(C#N)c(Nc3ccc(OCc4ccccn4)c(Cl)c3)c2cc1NC(=O)/C=C/CN(C)C	kinase still bound, per cent of control	%	99
Cc1ccc2nc(NCCN)c3ncc(C)n3c2c1	kinase still bound, per cent of control	%	100
C=CC(=O)Nc1cc(NC(=O)c2ccc(C)c(NC(=O)c3ccno3)c2)cc(C(F)(F)F)c1	kinase still bound, per cent of control	%	93
Cn1c(=O)n(-c2ccc(C(C)(C)C#N)cc2)c2c3cc(-c4cnc5ccccc5c4)ccc3ncc21	kinase still bound, per cent of control	%	100
OCCCNc1cc(-c2ccnc(Nc3cccc(Cl)c3)n2)ccn1	kinase still bound, per cent of control	%	100
COc1cc(N2CCN(C)CC2)ccc1Nc1nc(N)c(C(=O)c2c(Cl)cccc2Cl)s1	kinase still bound, per cent of control	%	99
CCCS(=O)(=O)Nc1ccc(F)c(C(=O)c2c[nH]c3ncc(-c4ccc(Cl)cc4)cc23)c1F	kinase still bound, per cent of control	%	100
C[C@@H](Oc1cc(-n2cnc3ccc(CN4CCN(C)CC4)cc32)sc1C(N)=O)c1ccccc1C(F)(F)F	kinase still bound, per cent of control	%	92
C=CC(=O)Nc1cccc(Nc2nc(N[C@H]3CC[C@H](N(C)C)CC3)nc3c2ncn3C(C)C)c1	kinase still bound, per cent of control	%	73
O=C(O)c1ccc(Nc2ncc3c(n2)-c2ccc(Cl)cc2C(c2c(F)cccc2F)=NC3)cc1	kinase still bound, per cent of control	%	14
O=C(NC1CC1)c1cccc(-c2ccc3c(NC(=O)C4CC4)n[nH]c3c2)c1	kinase still bound, per cent of control	%	100
CN(C)C/C=C/C(=O)Nc1cccc(Nc2ncc3c(n2)N(C)c2ccccc2C(=O)N3C)c1	kinase still bound, per cent of control	%	91
C=CC(=O)Nc1cccc(Oc2nc(Nc3ccc(N4CCN(C)CC4)cc3OC)ncc2Cl)c1	kinase still bound, per cent of control	%	100
Cc1ccc(NC(=O)c2cccc(C(C)(C)C#N)c2)cc1Nc1ccc2ncn(C)c(=O)c2c1	kinase still bound, per cent of control	%	0
CCC(=O)N1CCN(c2ccc(-n3c(=O)ccc4cnc5ccc(-c6cnc7ccccc7c6)cc5c43)cc2C(F)(F)F)CC1	kinase still bound, per cent of control	%	75

====

target: AURKC (human) (UniProt Q9UQB9); assay: KINOMEscan competition binding; details: compound 10.0 µM
Sequence (Q9UQB9 whole entry, looked up): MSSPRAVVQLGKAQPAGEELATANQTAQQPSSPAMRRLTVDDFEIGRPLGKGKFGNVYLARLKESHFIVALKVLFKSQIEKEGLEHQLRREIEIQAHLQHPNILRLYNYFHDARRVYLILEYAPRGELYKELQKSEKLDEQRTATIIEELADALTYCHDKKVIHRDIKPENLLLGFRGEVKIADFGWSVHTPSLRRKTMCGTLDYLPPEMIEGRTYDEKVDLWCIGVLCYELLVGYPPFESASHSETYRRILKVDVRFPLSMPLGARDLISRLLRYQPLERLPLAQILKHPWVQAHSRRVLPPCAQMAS

smiles.notation	unit.spec	kinase still bound, per cent of control
CCOc1cc2ncc(C#N)c(Nc3ccc(OCc4ccccn4)c(Cl)c3)c2cc1NC(=O)/C=C/CN(C)C	%	95
COc1cc(N2CCN(C)CC2)ccc1Nc1nc(N)c(C(=O)c2c(Cl)cccc2Cl)s1	%	100
Cc1ccc(NC(=O)c2cccc(C(C)(C)C#N)c2)cc1Nc1ccc2ncn(C)c(=O)c2c1	%	100
C=CC(=O)Nc1cccc(Nc2nc(N[C@H]3CC[C@H](N(C)C)CC3)nc3c2ncn3C(C)C)c1	%	69
N#Cc1c(NC(=O)c2cccc3ccccc23)sc2c1CCCC2	%	87
C[C@@H](Oc1cc(-n2cnc3ccc(CN4CCN(C)CC4)cc32)sc1C(N)=O)c1ccccc1C(F)(F)F	%	100

Taken from the kinase profiling compilation of Christmann-Franck et al. (2016).
